tested on: NIH3T3; assay: Cytotoxic Profiling of Annotated Libraries Using Quantitative High-Throughput Screening (AID 1296008); conditions: Five cell lines viability, CellTiter-Glo ATP luminescence, 48-72 h; further: nearly all actives have a fitted effect of over 60% in size
Inconclusive results are not listed. The source made the active and inactive calls. The call rests on the fitted dose curve; in most records, active means well fitted inhibition curve with a large enough effect; inconclusive means small, poorly fitted or top-dose-only effect; inactive means flat fitted curve, though single readings scatter.
API: response.call in 1 for active, 0 for inactive

Task item: # fetch the recorded call for CN(c1ccccc1CNc1nc(Nc2ccc3c(c2)CC(=O)N3)ncc1C(F)(F)F)S(C)(=O)=O here
Reply: 1

Task item: # fetch the recorded call for CO[C@@H](C)Cn1c(=O)n(C)c2cnc3ccc(-c4cncc(C(C)(C)O)c4)cc3c21 here
Reply: 1

Task item: # fetch the recorded call for COc1cc(NC(=O)Nc2cccc(CNC(=O)O[C@H]3CCOC3)c2)ccc1-c1cnco1 here
Reply: 1

Task item: # fetch the recorded call for Cc1ccc(S(=O)(=O)Cc2nc(-c3ccc(C(=O)NCc4cccnc4)cc3)oc2C)cc1 here
Reply: 1

Task item: # fetch the recorded call for CCC(C)/C=C(C)/C=C/c1cc2c(cn1)C(=O)C(C)(OC(C)=O)C(O)=C2Cl (centres undefined) here
Reply: 0

Task item: # fetch the recorded call for Cc1c[nH]c2nccc(Oc3c(F)cc(Nc4cc(Cl)nc(N)n4)cc3F)c12 here
Reply: 1

Task item: # fetch the recorded call for CCC(C)C(=O)OC1CC(O)C23C4OCC5(C(O)CC2C1(C)C(O)O4)C3C(=O)C(O)C1(C)C(O)(c2ccoc2)CC2OC251 (centres undefined) here
Reply: 1

Task item: # fetch the recorded call for CCN1CCN(Cc2ccc(NC(=O)c3ccc(C)c(NC(=O)c4cncc(-c5cccs5)c4)c3)cc2C(F)(F)F)CC1 here
Reply: 1

Task item: # fetch the recorded call for CC(O)/C=C/C1OC(=O)CC1Nc1ccc(C(=O)O)cc1 (centres undefined) here
Reply: 0

###

system: Zika virus NS2B-NS3 protease (unlinked complex); assay: Confirmatory screen GU AMC qHTS for Zika virus inhibitors (AID 1347153); conditions: Recombinant NS2B-NS3 protease, AMC substrate fluorescence; series mostly up to 111 µM; further: nearly all actives have a fitted effect of over 70% in size
Inconclusive results are not listed. Activity calls are given as the source filed them. The call rests on the fitted dose curve; in most records, active means well fitted inhibition curve with a large enough effect; inconclusive means small, poorly fitted or top-dose-only effect; inactive means flat fitted curve, though single readings scatter.
API: response.call in True = active, False = inactive

Task item: # fetch the recorded call for C=CC/C=C\C/C=C\CCCCCCCc1cccc(O)c1C(=O)O here
Reply: True

Task item: # fetch the recorded call for CCc1c(-c2ccccc2)c(-c2ccccc2)nn1-c1ccccc1-c1cccc(OCC(=O)O)c1 here
Reply: True

Task item: # fetch the recorded call for N#CC(c1ccnc(OCc2ccc(CN3CCOCC3)cc2)n1)c1nc2ccccc2s1 (configuration not stated) here
Reply: False

Task item: # fetch the recorded call for CC1=C(C(=O)OCc2ccccc2)C(c2ccc(-c3ccccc3)cc2)NC(=O)N1CCCCCC(=O)O (configuration not stated) here
Reply: True

Task item: # fetch the recorded call for CCCCCCOc1cc2c(cc1N(C)c1ncc(C(=O)O)cn1)C(C)(C)CCC2(C)C here
Reply: True

Task item: # fetch the recorded call for COc1ccc(C(=O)n2c(C)c(Cc3cccc(O[C@@H](C)C(=O)O)c3)c3cc(OC(F)(F)F)ccc32)cc1 here
Reply: True

Task item: # fetch the recorded call for COc1cc(Nc2nc3ccccc3nc2NS(=O)(=O)c2ccc(NC(=O)c3ccc(OC)c(C)c3)cc2)cc(OC)c1 here
Reply: True

###

tested on: Zika virus NS2B-NS3 protease (linked construct); assay: Primary screen NINDS Rhodamine qHTS for Zika virus inhibitors (AID 1347160); details: purified NS2B-NS3 protease, Rhodamine110 substrate fluorescence; series mostly up to 57.1 µM; further: nearly all actives have a fitted effect of over 55% in size
Inconclusive results are not listed. Calls of active or inactive are those of the source. Calls follow the shape of the dose curve; as a rule, active = well fitted inhibition curve with a large enough effect; inconclusive = small, poorly fitted or top-dose-only effect; inactive = no such curve, though single readings can be large or run the other way.
API: response.call in active, inactive

Task item: # fetch the recorded call for CC[C@H]1OC(=O)[C@](C)(F)C(=O)[C@H](C)[C@@H](O[C@@H]2O[C@H](C)C[C@H](N(C)C)[C@H]2O)[C@](C)(OC)C[C@@H](C)C(=O)[C@@H](C)[C@H]2N(CCCCn3cc(-c4cccc(N)c4)nn3)C(=O)O[C@]12C here
Reply: inactive

Task item: # fetch the recorded call for COc1c2c(c(C)c3c1C(=O)OC3)OC1(C)CC(O)C34OC(OC)(CC(OC(C)=O)C3(C)C1C2)OC4(C)C (configuration not stated) here
Reply: inactive

Task item: # fetch the recorded call for O=C(O)/C=C/c1ccc(-c2ccc(O)c(C34CC5CC(CC(C5)C3)C4)c2)cc1 here
Reply: active

Task item: # fetch the recorded call for CCOc1ccc(NC(=S)N2CCC(C(O)(c3ccccc3)c3ccccc3)CC2)cc1 here
Reply: inactive

Task item: # fetch the recorded call for CC(C(O)/C=C/C(C)(C)O)C1CCC2(C)C3C(=O)C=C4C(CCC(O)C4(C)C)C3(C)CCC12C (configuration not stated) here
Reply: inactive

Task item: # fetch the recorded call for CC(=O)c1cc(C(=O)N[C@@H](C)Cn2ccc(-c3ccc(C#N)c(Cl)c3)n2)[nH]n1 here
Reply: inactive

Task item: # fetch the recorded call for CNC(=O)c1ccccc1Nc1cc(Nc2ccc(N3CCOCC3)cc2OC)ncc1C(F)(F)F here
Reply: inactive

###

assay: Primary qHTS for inhibitors of nuclear receptor binding SET domain protein 2 (NSD2) in an RCH-ACV wild type WT cells (2C) (AID 1645877); conditions: RCH-ACV (leukaemia line) NSD2 WT (2C) viability, CellTiter-Glo, 72 h; series mostly up to 44.9 µM; further: nearly all actives have a fitted effect of over 70% in size; further: potency means the concentration at half of the fitted maximal effect
Records with an inconclusive call do not appear. Activity calls are given as the source filed them. Calls come from the whole dose curve; as a rule, active = well fitted inhibition curve with a large enough effect; inconclusive = small, poorly fitted or top-dose-only effect; inactive = no such curve, though single readings can be large or run the other way.
Observation type: Potency

INSERT INTO results (compound, observation_type, test_result) VALUES
  ('COc1c2c(c(C)c3c1C(=O)OC3)O[C@@]1(C)CCC3(C(C)(C)O)OC(=O)CC[C@]3(C)[C@H]1C2 (stereo not given in full)', 'Potency', 'inactive'),
  ('Cc1ccc(C)c(OCCn2cc(C(=O)O)c3ccccc32)c1', 'Potency', 'inactive'),
  ('CC(Oc1cc(-n2cnc3ccc(CN4CCN(C)CC4)cc32)sc1C(N)=O)c1ccccc1C(F)(F)F (stereo not given)', 'Potency', '0.649 µM (active)'),
  ('CCC1C(=O)OC23C=C[C@@H]4C(C(=O)O)=CO[C@H](O[C@@H]12)[C@@H]43 (stereo not given in full)', 'Potency', '18.3 µM (active)');

Task item: # query: Potency of entry COC(=O)C1=C2Nc3ccccc3C23CCN2CCCC(C(C)O)(C1)C23 (stereo not given)
Reply: inactive

###

Test system: HEK293
Experiment: Cytotoxic Profiling of Annotated Libraries Using Quantitative High-Throughput Screening (AID 1296008); further: nearly all actives have a fitted effect of over 60% in size; on max response: on the % scale 0 is the no-effect control and ±100 the full control effect
Details: Five cell lines viability, CellTiter-Glo ATP luminescence, 48-72 h; stronger effect = lower value
Procedure: Cell-based phenotypic screening is a commonly used approach to discover biological pathways, novel drug targets, chemical probes and high-quality hit-to-lead molecules. […] A pintool (Kalypsys) was used to transfer 23 nL of compound solution to the 1536-well assay plates. […] Plates were left at room temperature for 10 min before imaging the ATP-coupled luminescence using a ViewLux microplate imager (PerkinElmer, Waltham, MA).
Results filed as inconclusive are left out.
Observation type: max response (%)
I only need the number, in %, no unit after it.

Task item: # query: max response of entry CC1(C=O)CC[C@]2(C(=O)O[C@@H]3O[C@H](CO)[C@@H](O)[C@H](O)[C@H]3O)CC[C@]3(C)C(=CCC4[C@@]5(C)C[C@H](O)[C@H](O[C@@H]6OC[C@@H](O)[C@H](O)[C@H]6O)[C@@](C)(CO)C5CC[C@]43C)C2C1 (stereo not given in full)
Reply: -6.07

Task item: # query: max response of entry OC/C=C/c1ccc(O[C@@H]2O[C@H](CO)[C@@H](O)[C@H](O)[C@H]2O)cc1
Reply: -1.19

Task item: # query: max response of entry CC(=O)OC[C@]12[C@H](OC(C)=O)C(=O)[C@@H]3[C@@H](OC(C)=O)[C@@]14O[C@@]3(C)COC(=O)c1cccnc1[C@@H](C)[C@H](C)C(=O)O[C@@H]([C@H](O)[C@@H]2OC(C)=O)[C@]4(C)O
Reply: -0.596

Task item: # query: max response of entry CC1(C)CCC2(C(=O)OC3OC(CO)C(O)C(O)C3O)CCC3(C)C(=CCC4C5(C)CCC(OC6OC(C(=O)O)C(OC7OC(CO)C(O)C(O)C7O)C(OC7OC(CO)C(O)C(O)C7O)C6O)C(C)(C)C5CCC43C)C2C1 (stereo not given)
Reply: 4.12

Task item: # query: max response of entry COc1cc2ncnc(Nc3cccc(Cl)c3F)c2cc1OC(=O)N1CCN(C)C[C@H]1C
Reply: -115

Task item: # query: max response of entry CC1(C)CCC(C)(C)c2cc(C3(c4ccc(C(=O)O)cc4)OCCO3)ccc21
Reply: -82.5

Task item: # query: max response of entry Cc1cn(C2C=CC(CO)O2)c(=O)[nH]c1=O (stereo not given)
Reply: -22.8

Task item: # query: max response of entry COC(=O)C1=C2Nc3ccccc3C23CCN2CCCC(C(C)O)(C1)C23 (stereo not given)
Reply: -3.43

Task item: # query: max response of entry C[C@H]1CC[C@@]2(OC1)O[C@H]1CC3C4CC[C@H]5C[C@@H](O)[C@H](O)C[C@]5(C)C4=CC(=O)[C@]3(C)[C@H]1[C@@H]2C (stereo not given in full)
Reply: -6.34

Task item: # query: max response of entry NC(=O)c1cccc(-c2cc(OC(=O)NC3CCCCC3)ccc2O)c1
Reply: -86.9

Task item: # query: max response of entry CCOC(=O)c1sc(NC(=O)[C@H](C(C)C)n2c(=O)[nH]c3ccccc3c2=O)nc1C
Reply: -9.44

Task item: # query: max response of entry C=C1CCC2C(C)(C(=O)O)CCCC2(C)C1CC/C(=C\CO)CO (stereo not given)
Reply: 2.54

Task item: # query: max response of entry CC1(C)CC[C@]2(CO[C@@H]3O[C@H](CO)[C@@H](O)[C@H](O)[C@H]3O)[C@@H](O)C[C@]3(C)C(=CCC4[C@@]5(C)CC[C@H](O[C@@H]6O[C@H](CO[C@@H]7O[C@H](CO[C@@H]8OC[C@@H](O)[C@H](O)[C@H]8O)[C@@H](O)[C@H](O)[C@H]7O)[C@@H](O)[C@H](O)[C@H]6O)C(C)(C)C5CC[C@]43C)[C@@H]2C1 (stereo not given in full)
Reply: -6.51

Task item: # query: max response of entry COc1cc2ncnc(Nc3cccc(O)c3)c2cc1OC
Reply: -2.36

Task item: # query: max response of entry O=C(O[C@H]1[C@@H]2C[C@@H]3OC[C@](O)([C@@H]1Cl)[C@H]2C(O[C@@H]1O[C@H](CO)[C@@H](O)[C@H](O)[C@H]1O)O3)c1ccc(O)c(O)c1 (stereo not given in full)
Reply: -2.09

Task item: # query: max response of entry CC(C)=CCC/C(C)=C/CO[C@@H]1O[C@H](CO)[C@@H](O)[C@H](O)[C@H]1O
Reply: 1.41

Task item: # query: max response of entry CC1=CC(=O)C(=C(C)C)CC2C1CCC2(C)O (stereo not given)
Reply: 4.65

Task item: # query: max response of entry C=C1C(=O)OC2CC3(C)C(CC12)C(C)=CC(O)C3OC(C)=O (stereo not given)
Reply: -3.84

Task item: # query: max response of entry CC(C)CCC1(O)C(=O)C(C)(C)C(O[C@@H]2O[C@H](CO)[C@@H](O)[C@H](O)[C@H]2O)C(C)(C)C1O (stereo not given in full)
Reply: -13.9

Task item: # query: max response of entry O=C(c1ccc2nccnc2c1)N1CCCCC1
Reply: -81.1

Task item: # query: max response of entry C[C@H]1O[C@@H](O[C@H]2CC[C@@]3(C)C(CC[C@]4(C)C3CC=C3C5CC(C)(C)CC[C@]5(C(=O)O)CC[C@]34C(=O)O)C2(C)C)[C@H](O)[C@@H](O)[C@@H]1O (stereo not given in full)
Reply: -5.54

Task item: # query: max response of entry O=C(NCC(O)CO)c1ccncc1Nc1ccc(I)cc1F (stereo not given)
Reply: -15.9

Task item: # query: max response of entry CC1(C)CCC[C@@]2(C)C1[C@H](OC(=O)/C=C/C=C/C(=O)O)C=C1COC(=O)[C@@]12O (stereo not given in full)
Reply: -4.94

Task item: # query: max response of entry CC/C=C\[C@H](O)[C@H](O)C1=C(C)C(=O)[C@]2(O1)C(=O)N[C@@](OC)(C(=O)c1ccccc1)[C@@H]2O
Reply: -0.3

Task item: # query: max response of entry CC1=C2C3OC(=O)C(C)C3(O)CCC2(C)CCC1O (stereo not given)
Reply: -8.27

Task item: # query: max response of entry Cc1ccc(Cc2c(C)nc3nc(SCC(=O)NCCN4CCNCC4)nn3c2C)cc1
Reply: 2.24

Task item: # query: max response of entry NCc1c[nH]c(=S)n1[C@@H]1CCc2c(F)cc(F)cc2C1
Reply: -9.28

Task item: # query: max response of entry O=S(=O)(c1ccc(S(=O)(=O)n2cnc3ccccc32)cc1)N1CCCCCC1
Reply: -10.3

Task item: # query: max response of entry C=C1CC[C@@H]2[C@@](C)(CO[C@@H]3O[C@H](CO)C(O)[C@H](O)C3O)[C@H](O)CC[C@@]2(C)[C@@H]1CC/C(C)=C/CO (stereo not given in full)
Reply: 1.32

Task item: # query: max response of entry CC1(C)CC[C@]2(C(=O)O[C@@H]3O[C@H](CO)[C@@H](O)[C@H](O)[C@H]3O)CC[C@]3(C)C(=CCC4[C@@]5(C)CC[C@H](O[C@@H]6O[C@H](C(=O)O)[C@@H](O)[C@H](O)[C@H]6O)C(C)(C)C5CC[C@]43C)C2C1 (stereo not given in full)
Reply: -5.49
